- experimentalSystem: cGMP-dependent protein kinase 1 (Homo sapiens)
- cond: at 1 µM
Please respond with reported residual activity for every item in the list.
Numbers only, in %.

Example compounds with recorded residual activity:
compound	residual activity, %
COC(=O)[C@@]1(O)C[C@H]2O[C@]1(C)n1c3ccccc3c3c4c(c5c6ccccc6n2c5c31)C(=O)NC4	9
O=C1NC(=O)c2c1c1c3ccccc3n3c1c1c2c2ccccc2n1C1CCC3O1	76
C[S+]([O-])c1ccc(-c2nc(-c3ccc(F)cc3)c(-c3ccncc3)[nH]2)cc1 (stereo not drawn)	125

Kindly give each listed record's residual activity.
1. COc1cc(OC)c(/C=C2\C(=O)Nc3ccccc32)c(OC)c1
2. COc1cc2ncnc(Nc3ccc(OCc4ccccc4)cc3)c2cc1OC
3. O=c1[nH]c2ccccc2n1C1CCN(Cc2ccc(-c3nc4cc5[nH]cnc5cc4nc3-c3ccccc3)cc2)CC1
4. CCn1cnc2c(Nc3cccc(Cl)c3)nc(N[C@@H]3CCCC[C@@H]3N)nc21
5. c1cc(-c2cnn3cc(-c4ccc(OCCN5CCCCC5)cc4)cnc23)ccn1

83
72
86
89
66

###

- experimentalSystem: Mitogen-activated protein kinase kinase kinase 7 (Homo sapiens) (UniProt O43318)
- Sequence (O43318 whole entry): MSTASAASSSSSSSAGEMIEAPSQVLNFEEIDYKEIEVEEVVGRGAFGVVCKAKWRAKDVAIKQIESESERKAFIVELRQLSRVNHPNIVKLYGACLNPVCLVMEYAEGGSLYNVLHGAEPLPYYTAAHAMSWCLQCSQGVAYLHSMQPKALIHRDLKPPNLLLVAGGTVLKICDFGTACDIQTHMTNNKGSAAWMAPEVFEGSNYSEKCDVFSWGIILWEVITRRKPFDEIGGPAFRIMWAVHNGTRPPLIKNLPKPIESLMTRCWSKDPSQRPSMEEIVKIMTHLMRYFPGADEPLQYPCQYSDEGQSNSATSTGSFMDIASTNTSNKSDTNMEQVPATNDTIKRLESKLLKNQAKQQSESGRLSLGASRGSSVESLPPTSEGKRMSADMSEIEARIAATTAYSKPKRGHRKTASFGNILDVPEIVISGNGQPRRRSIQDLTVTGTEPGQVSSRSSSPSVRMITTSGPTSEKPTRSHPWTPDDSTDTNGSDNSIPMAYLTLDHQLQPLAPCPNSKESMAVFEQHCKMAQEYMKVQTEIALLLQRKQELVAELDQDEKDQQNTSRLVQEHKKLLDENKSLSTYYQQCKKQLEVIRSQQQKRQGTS
- cond: at 10 µM
Entries whose residual activity is below 80% take yes (1); entries at or above 80% take no (0).

molecule	group
O=[N+]([O-])/C=C/c1ccc2c(c1)OCO2	no (0)
COc1ccc2c(c1)/C(=C/c1cnc[nH]1)C(=O)N2	yes (1)
CC(C)[C@H](CO)Nc1nc(Nc2cccc(Cl)c2)c2ncn(C(C)C)c2n1	yes (1)

Dear colleague, could you confirm whether residual activity of N/C(=N\[N+](=O)[O-])N/N=C\c1ccc(-c2cccc([N+](=O)[O-])c2)o1 falls below 80%? Thanks.
no (0)

###

- experimentalSystem: Death-associated protein kinase 1 (Homo sapiens)
- cond: at 1 µM
Please respond with reported residual activity for every item in the list.
Answers are plain numbers, in %.

Example molecules with recorded residual activity:
molecule	measurementUnit	residual activity
O=[N+]([O-])/C=C/c1ccc2c(c1)OCO2	%	85
CCN(CC)CCNC(=O)c1c(C)[nH]c(/C=C2\C(=O)Nc3ccc(Cl)cc32)c1C	%	75
CC(=O)c1ccc(N2CCOCC2)cc1O	%	111
O=C(Nc1cccc(Nc2nccc(Nc3cccc(C(F)(F)F)c3)n2)c1)C1CC1	%	98
CCCC(=O)Oc1ccc2[nH]c(C(=O)c3cc4ccccc4[nH]3)cc2c1	%	83

Kindly give each listed record's residual activity.
1. COc1cc2ncnc(Nc3ccc(NC(=O)c4ccccc4)cc3)c2cc1OC
2. N#Cc1cnc2cnc(NCc3cccnc3)cc2c1Nc1ccc(F)c(Cl)c1

1: 95; 2: 69

###

Please respond with reported residual activity for every item in the list.
- experimentalSystem: Protein kinase C beta type (Homo sapiens) (UniProt P05771)
- Sequence (P05771 2-671 limits assumed): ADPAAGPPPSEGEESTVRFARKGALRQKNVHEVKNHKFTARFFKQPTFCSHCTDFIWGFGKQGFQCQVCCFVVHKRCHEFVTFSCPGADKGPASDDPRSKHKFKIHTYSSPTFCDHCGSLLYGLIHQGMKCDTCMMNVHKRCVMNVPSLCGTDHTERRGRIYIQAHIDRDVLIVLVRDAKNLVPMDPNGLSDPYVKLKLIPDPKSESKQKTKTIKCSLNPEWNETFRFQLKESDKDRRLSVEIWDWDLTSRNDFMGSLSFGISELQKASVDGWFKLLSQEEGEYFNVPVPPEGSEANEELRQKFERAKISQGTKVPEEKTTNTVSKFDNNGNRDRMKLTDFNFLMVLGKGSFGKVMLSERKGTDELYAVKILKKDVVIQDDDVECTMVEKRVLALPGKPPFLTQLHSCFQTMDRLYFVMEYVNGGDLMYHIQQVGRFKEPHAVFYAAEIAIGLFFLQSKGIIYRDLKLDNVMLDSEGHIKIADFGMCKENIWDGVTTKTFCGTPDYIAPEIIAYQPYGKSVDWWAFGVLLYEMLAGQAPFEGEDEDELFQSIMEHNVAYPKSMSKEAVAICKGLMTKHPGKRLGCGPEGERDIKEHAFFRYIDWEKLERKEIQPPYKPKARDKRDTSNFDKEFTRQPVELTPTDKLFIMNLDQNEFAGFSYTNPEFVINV
- cond: at 1 µM
One number for each entry, in %.

Example compounds with recorded residual activity:
compound	residual activity, %
CCn1cnc2c(Nc3cccc(Cl)c3)nc(N[C@@H]3CCCC[C@@H]3N)nc21	99
CC(C)(C)c1cc(C=C(C#N)C#N)cc(Br)c1O	108
COc1ccc2c(c[n+](C)c3c4cc5c(cc4ccc23)OCO5)c1OC	87

Kindly give each listed record's residual activity.
1. C[S+]([O-])c1ccc(-c2nc(-c3ccc(F)cc3)c(-c3ccncc3)[nH]2)cc1 (centres undefined)
2. CC(C)[C@H](CO)Nc1nc(Nc2cccc(Cl)c2)c2ncn(C(C)C)c2n1
3. O=c1[nH]c2ccccc2n1C1CCN(Cc2ccc(-c3nc4cc5[nH]cnc5cc4nc3-c3ccccc3)cc2)CC1
4. COc1cc2ncnc(Nc3ccc(OCc4ccccc4)cc3)c2cc1OC

[104, 120, 88, 105]

Kindly give each listed record's residual activity.
1. COc1cc(OC)c(/C=C2\C(=O)Nc3ccccc32)c(OC)c1
2. O=C1c2ccccc2-c2nc3nnnn3nc21

1. 103
2. 101
